Reference for the values: paper PMC9030827

Test system: Hec50co cells
assay_details: Neutral red (NR) cell viability assay
Assay type: cell-based
measurement_parameters: Homo sapiens, 24 h, read-out: EC50 (decrease of viability), NR assay
metric: EC50 (µM)
Just the number please, in µM, no unit attached.

Asked: Need EC50 of O=C(/C=C/c1ccc(O)c(O)c1)NCCCCCCCCCC[P+](c1ccccc1)(c1ccccc1)c1ccccc1 [Mito6_TPP] , thanks.
Given back: 53.6

###

Test system: Ishikawa cells
assay_details: Neutral red (NR) cell viability assay
Assay type: cell-based
measurement_parameters: Homo sapiens, 24 h, read-out: EC50 (decrease of viability), NR assay
metric: pEC50
pEC50 is defined as minus the log10 of a concentration measured in mol/L.

Asked: What is its pEC50 for Ishikawa cells? Entry: O=C(/C=C/c1ccc(O)c(O)c1)NCCCCCCCCCC[P+](c1ccccc1)(c1ccccc1)c1ccccc1 [Mito6_TPP]
Given back: 4.48
